TEST_NAME: Dissociation constant, pKa of the compound
Type: physicochemical
Property: pKa; scope: individual compounds
VALUE_KIND: pKa

> print(dat)
                               input.smiles  measured.value
1  O=c1[nH]c(=O)n([C@@H]2O[C@H](CO)[C@@H](O)[C@@H]2O)cc1I               8
2  O=c1[nH]c(=O)n([C@@H]2O[C@H](CO)[C@@H](O)[C@@H]2O)cc1O             7.8
3  O=c1[nH]c(=O)n([C@@H]2O[C@H](CO)[C@@H](O)[C@@H]2O)cc1Br               8
4  O=c1[nH]c(=O)n([C@@H]2O[C@H](CO)[C@@H](O)[C@@H]2O)cc1[N+](=O)[O-]             5.7
5  N#Cc1cn([C@@H]2O[C@H](CO)[C@@H](O)[C@@H]2O)c(=O)[nH]c1=O             6.8
